These data points were gathered from patent US11453711B2.

For each entry below, report its Cumulative food intake reduction at 30 nmol/kg (% reduction compared to vehicle)(Day11) value.
# measurementNotes: Body weight and food intake in C57BL/6 mice, fusion protein conjugates, 30 nmol/kg daily 10 days
# Format: in vivo
Form entry: value (%) — number only.

Dear colleague, I am looking for the recorded Cumulative food intake reduction at 30 nmol/kg (% reduction compared to vehicle)(Day11) of the following molecule: MLC014: negative control, SEQ ID NO: 261: linker fused to N terminal of GDF15, CRM conjugated to lysine in the linker; GDF15 derivative (conjugate, CRM conjugated to linker lysine, GDF15 derivative) SEPATSGQEKGQEPGQEPGQEPGQEPGQEPGAQPGAQPARQGDHCPLGPGRCCRLHTVRASLEDLGWADWVLSPREVQVTMCIGACPSQFRAANLHAQIKTSLHRLRPDTVPAPCCVPASYNPMVLIQRTDTGVSLQTYDDLLARDCHCI
27.3

Dear colleague, I am looking for the recorded Cumulative food intake reduction at 30 nmol/kg (% reduction compared to vehicle)(Day11) of the following molecule: MLC103: fusion polypeptide SEQ ID NO: 390 conjugated with Moiety A at 71K of Linker (conjugate, Moiety A conjugated at linker Lys71) HGEGTFTSDVSSYLEEQAAREFIAWLVRGGGGQEPGAQPGQEPGAQPGQEPGAQPGQEPGAQPGQEPGAQPGQEPGAQPGAQPGAQPGAQPGAQPGAQPGAKPGAQPGAQPARQGDHCPLGPGRCCRLHTVRASLEDLGWADWVLSPREVQVTMCIGACPSQFRAANLHAQIKTSLHRLRPDTVPAPCCVPASYNPMVLIQRTDTGVSLQTYDDLLARDCHCI
36.2

Dear colleague, I am looking for the recorded Cumulative food intake reduction at 30 nmol/kg (% reduction compared to vehicle)(Day11) of the following molecule: MLC045: fusion polypeptide SEQ ID NO: 328 conjugated with Moiety A at 1K and 55K of Linker (conjugate, Moiety A conjugated at linker K1, K55) HGEGTFTSDVSSYLEEQAAREFIAWLVRGGGKQEPGAQPGQEPGAQPGQEPGAQPGQEPGAQPGQEPGAQPGQEPGAQPGAQPGAKPGAQPGAQPGAQPGAQPGAQPGAQPARQGDHCPLGPGRCCRLHTVRASLEDLGWADWVLSPREVQVTMCIGACPSQFRAANLHAQIKTSLHRLRPDTVPAPCCVPASYNPMVLIQRTDTGVSLQTYDDLLARDCHCI
27.8

Dear colleague, I am looking for the recorded Cumulative food intake reduction at 30 nmol/kg (% reduction compared to vehicle)(Day11) of the following molecule: MLC074: fusion polypeptide SEQ ID NO: 369 conjugated with Moiety B at 41C of Linker (conjugate, Moiety B conjugated at linker C41) HGEGTFTSDVSSYLEEQAAKEFIAWLVRGGGGQEPGAQPGQEPGAQPGQEPGAQPGQEPGAQPGQEPGAQPCQEPGAQPGAQPGAQPGAQPGAQPGAQPGAQPGAQPGAQPARQGDHCPLGPGRCCRLHTVRASLEDLGWADWVLSPREVQVTMCIGACPSQFRAANLHAQIKTSLHRLKPDTVPAPCCVPASYNPMVLIQKTDTGVSLQTYDDLLAKDCHCI
39.9
